- System: N. gonorrhoeae WHO L
- measurement.protocol: Liquid broth MIC in Fastidious broth
- assay.setup: Neisseria gonorrhoeae, read-out: Minimum Inhibitory Concentration (MIC), N. gonorrhoeae WHO L
Recorded measurements of MIC, one per entry

CCN1CCN(C(=O)NC(C(=O)N[C@H]2Cc3cccc(C(=O)O)c3OB2O)c2ccc(S(=O)(=O)O)cc2)C(=O)C1=O (stereo partly drawn) [Example 189]
4 to 8 µg/mL

// Input: O=C(CN1CCN(C(=O)NC(C(=O)N[C@H]2Cc3ccc(F)c(C(=O)O)c3OB2O)c2cc(F)c(O)c(O)c2Cl)C(=O)C1=O)Nc1ccccc1 (stereo partly drawn) [Example 232] . Output its MIC only.
> 64 µg/mL

// Input: O=C(O)c1cccc2c1OB(O)[C@@H](NC(=O)C(NC(=O)c1ncccc1Cl)c1ccc(P(=O)(O)O)cc1)C2 (stereo partly drawn) [Example 183] . Output its MIC only.
16 to 32 µg/mL

// Input: O=C(O)c1cccc2c1OB(O)[C@@H](NC(=O)[C@H](NC(=O)[C@@H]1CCCN1)c1ccc(P(=O)(O)O)cc1)C2 [Example 173] . Output its MIC only.
16 to 32 µg/mL

// Input: O=C(O)c1cccc2c1OB(O)[C@@H](NC(=O)C(NC(=O)N1CCCNC1=O)c1ccc(P(=O)(O)O)cc1)C2 (stereo partly drawn) [Example 56] . Output its MIC only.
16 to 32 µg/mL

// Input: CS(=O)(=O)NC(C(=O)N[C@H]1Cc2cccc(C(=O)O)c2OB1O)c1ccc(P(=O)(O)O)cc1 (stereo partly drawn) [Example 59] . Output its MIC only.
16 to 32 µg/mL

* * *

Recorded measurements of MIC, one per entry
- System: P. aeruginosa ATCC 35151
- measurement.protocol: microbe, parasite or virus in culture
- Assay type: cell-based
- assay.setup: Pseudomonas aeruginosa, ATCC35151, read-out: Minimum inhibitory concentration, P. aeruginosa ATCC 35151

O=C(NCCCN1CCN(C(=O)N[C@H](C(=O)N[C@H]2Cc3ccc(F)c(C(=O)O)c3OB2O)c2cc(F)c(O)c(O)c2Cl)C(=O)C1=O)c1ccc(O)cc1Cl (single isomer, unassigned) [Example 470]
< 1 µg/mL

Give the observed MIC of O=C(CN1CCN(C(=O)NC(C(=O)N[C@H]2Cc3ccc(F)c(C(=O)O)c3OB2O)c2cc(F)c(O)c(O)c2Cl)C(=O)C1=O)Nc1cccc(O)c1 (some centres unmarked) [Example 231] for P. aeruginosa ATCC 35151.
< 1 µg/mL

Give the observed MIC of O=C(NCCCS(=O)(=O)N1CCN(C(=O)N[C@H](C(=O)N[C@H]2Cc3ccc(F)c(C(=O)O)c3OB2O)c2cc(F)c(O)c(O)c2Cl)C1=O)c1cccc(O)c1 [Example 270] for P. aeruginosa ATCC 35151.
< 1 µg/mL

* * *

- target.system: PBP3 from Escherichia coli (K-12) (Escherichia coli, UniProt P0AD68)
- Sequence (P0AD68 1-577): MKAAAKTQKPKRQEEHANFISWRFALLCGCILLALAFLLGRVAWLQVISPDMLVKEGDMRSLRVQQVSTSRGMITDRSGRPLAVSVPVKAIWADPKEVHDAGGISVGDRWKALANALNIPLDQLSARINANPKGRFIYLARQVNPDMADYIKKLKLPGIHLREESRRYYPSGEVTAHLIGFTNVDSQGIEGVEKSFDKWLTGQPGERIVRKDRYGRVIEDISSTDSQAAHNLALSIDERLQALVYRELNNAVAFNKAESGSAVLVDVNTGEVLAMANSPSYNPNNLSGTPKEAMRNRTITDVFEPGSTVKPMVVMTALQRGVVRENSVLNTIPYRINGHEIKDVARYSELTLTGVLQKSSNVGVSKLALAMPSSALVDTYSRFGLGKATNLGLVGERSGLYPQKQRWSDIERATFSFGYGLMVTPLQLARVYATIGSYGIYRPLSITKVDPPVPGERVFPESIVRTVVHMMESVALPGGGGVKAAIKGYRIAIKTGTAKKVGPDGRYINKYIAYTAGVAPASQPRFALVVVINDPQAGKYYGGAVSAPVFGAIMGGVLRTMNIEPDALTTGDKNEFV
- measurement.protocol: Bocillin-FL fluorescence polarization competition binding, E. coli PBP3
property: EC50

Worked cases, answers included:
O=C(NCCS(=O)(=O)N1CCN(C(=O)NC(C(=O)N[C@H]2Cc3ccc(F)c(C(=O)O)c3OB2O)c2cc(F)c(O)c(O)c2Cl)C1=O)c1cccnc1 (stereo partly shown) [Example 262]
< 10 µM
O=C(NCCCN1CCN(C(=O)NC(C(=O)N[C@H]2Cc3ccc(F)c(C(=O)O)c3OB2O)c2cc(F)c(O)c(O)c2Cl)C(=O)C1=O)c1c(F)cncc1F (stereo partly shown) [Example 402]
< 10 µM
O=C(NCCN1CCN(C(=O)NC(C(=O)N[C@H]2Cc3ccc(F)c(C(=O)O)c3OB2O)c2cc(F)c(O)c(O)c2Cl)C1=O)c1ccncc1 (stereo partly shown) [Example 245]
10 to 50 µM

// Input: O=C(CN1CCN(C(=O)NC(C(=O)N[C@H]2Cc3ccc(F)c(C(=O)O)c3OB2O)c2cc(F)c(O)c(O)c2Cl)C(=O)C1=O)NCc1ccccc1 (stereo partly shown) [Example 238] . Output its EC50 only.
< 10 µM

// Input: O=C(NCCCN1CCN(C(=O)NC(C(=O)N[C@H]2Cc3ccc(F)c(C(=O)O)c3OB2O)c2cc(F)c(O)c(O)c2Cl)C(=O)C1=O)Nc1ccncc1 (stereo partly shown) [Example 228] . Output its EC50 only.
< 10 µM

// Input: CCC(=O)NC(C(=O)N[C@H]1Cc2cccc(C(=O)O)c2OB1O)c1ccc(P(=O)(O)O)cc1 (stereo partly shown) [Example 27] . Output its EC50 only.
50 to 250 µM

// Input: O=C(O)c1c(F)ccc2c1OB(O)[C@@H](NC(=O)C(NC(=O)N1CCN(C3CCN(C(=O)c4ccc(O)cc4)CC3)C(=O)C1=O)c1cc(F)c(O)c(O)c1Cl)C2 (stereo partly shown) [Example 427] . Output its EC50 only.
< 10 µM

// Input: O=C(NCCCN1CCN(C(=O)NC(C(=O)N[C@H]2Cc3ccc(F)c(C(=O)O)c3OB2O)c2cc(F)c(O)c(O)c2Cl)C(=O)C1=O)c1ccccc1 (stereo partly shown) [Example 202] . Output its EC50 only.
< 10 µM

// Input: CN(CCN1CCN(C(=O)N[C@@H](C(=O)N[C@H]2Cc3ccc(F)c(C(=O)O)c3OB2O)c2cc(F)c(O)c(O)c2Cl)C(=O)C1=O)Cc1ccc(N)nc1 [Example 209] . Output its EC50 only.
< 10 µM

The origin of these recorded values is patent US20240270762A1.
